- Target Desc: Beta2 (Cavia porcellus, UniProt Q8K4Z4)
- Sequence (Q8K4Z4 whole entry): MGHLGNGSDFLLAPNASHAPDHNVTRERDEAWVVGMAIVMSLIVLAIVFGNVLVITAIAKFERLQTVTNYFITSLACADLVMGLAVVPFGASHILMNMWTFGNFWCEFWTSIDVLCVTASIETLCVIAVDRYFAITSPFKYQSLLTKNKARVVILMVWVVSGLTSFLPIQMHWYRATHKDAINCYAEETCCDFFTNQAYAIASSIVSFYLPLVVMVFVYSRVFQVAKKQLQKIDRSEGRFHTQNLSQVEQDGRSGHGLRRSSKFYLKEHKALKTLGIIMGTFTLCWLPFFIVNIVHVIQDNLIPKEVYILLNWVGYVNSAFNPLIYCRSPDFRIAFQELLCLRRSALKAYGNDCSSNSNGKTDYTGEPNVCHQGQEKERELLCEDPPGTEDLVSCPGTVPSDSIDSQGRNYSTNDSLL
- Assay Info: Beta2 Agonism Functional Assay (inhibition of carbachol-stimulated tracheal muscle twitch)
- Protocol Conditions: Guinea-pig trachea ring preparations contracted with carbachol; inhibition of tracheal muscle twitch
Parameter: IC50

Look up and report IC50, with Beta2 (Cavia porcellus, UniProt Q8K4Z4) as system, for Nc1c(Cl)cc(C(O)C2CCCCN2)cc1Cl (single isomer, unassigned) > 2 µM

====

- Target Desc: Beta2 (Cavia porcellus, UniProt Q8K4Z4)
- Construct: from tissue; host or cells: guinea-pig trachea rings
- Assay Info: Beta2 Agonism Functional Assay (inhibition of carbachol-stimulated tracheal muscle twitch)
- Assay type: cell-based
- Protocol Conditions: Guinea-pig trachea ring preparations contracted with carbachol
Parameter: beta2 agonism (in words)

Look up and report beta2 agonism (in words), with Beta2 (Cavia porcellus, UniProt Q8K4Z4) as system, for Nc1c(Cl)cc(C(O)C2CCCCN2)cc1Cl (single isomer, unassigned) [Compound 7] poor, beta2 agonists

Look up and report beta2 agonism (in words), with Beta2 (Cavia porcellus, UniProt Q8K4Z4) as system, for Nc1c(Cl)cc(C(O)C2CCCCN2)cc1Cl (single isomer, unassigned) [Compound 10] poor, beta2 agonists

Look up and report beta2 agonism (in words), with Beta2 (Cavia porcellus, UniProt Q8K4Z4) as system, for Nc1c(Cl)cc(C(O)C2CCCCN2)cc1Cl (single isomer, unassigned) [Compound 11] poor, beta2 agonists

Look up and report beta2 agonism (in words), with Beta2 (Cavia porcellus, UniProt Q8K4Z4) as system, for Nc1c(Cl)cc(C(O)C2CCCCN2)cc1Cl (single isomer, unassigned) [Compound 8] poor, beta2 agonists

Every entry's value here was drawn from patent US20100016357A1.
